- TARGET_ENTITY: hCB1R (Homo sapiens, UniProt P21554)
- Sequence (P21554 whole entry): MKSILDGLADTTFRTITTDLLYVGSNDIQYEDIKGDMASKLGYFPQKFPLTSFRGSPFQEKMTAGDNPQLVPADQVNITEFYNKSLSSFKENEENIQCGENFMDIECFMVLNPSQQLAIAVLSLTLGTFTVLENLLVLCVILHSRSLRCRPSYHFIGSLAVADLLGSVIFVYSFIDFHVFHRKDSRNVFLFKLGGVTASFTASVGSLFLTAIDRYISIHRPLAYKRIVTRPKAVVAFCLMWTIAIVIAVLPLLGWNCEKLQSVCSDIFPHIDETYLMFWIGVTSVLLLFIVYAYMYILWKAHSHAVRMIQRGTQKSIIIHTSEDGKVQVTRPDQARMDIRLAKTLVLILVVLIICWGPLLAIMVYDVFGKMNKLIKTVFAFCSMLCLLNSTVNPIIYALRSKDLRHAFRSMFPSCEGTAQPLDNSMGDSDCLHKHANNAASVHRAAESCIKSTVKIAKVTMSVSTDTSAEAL
- METHOD_SUMMARY: [35S]GTPγS binding assay in HEK cells stably expressing human CB1R
- Assay type: biochemical
- Parameters: expressed in transfected cells; host or cells: HEK (HEK293) cells, membranes
- EXPERIMENTAL_SETUP: [CP] = 100 nM, mean (95% confidence interval), read-out: hCB1R [35S]GTPγS binding assay IC50
pIC50: −log10 of the molar value.
Recorded measurements of pIC50, one per entry

COMPOUND | SIGN_QUALIFIER | pIC50
O=C(Nc1ccc(Cl)cc1)N[C@@H]1C[C@H]1c1ccccc1 (racemic) [Compound 15] | < | 5.00
O=C(Nc1ccc(Cl)cc1)N[C@@H]1C[C@@H]1c1ccccc1 (relative stereo) [Compound 16] | < | 5.00
O=C(Nc1ccc(Cl)cc1)Nc1ccc(-c2cccnc2)s1 [Compound 34] | = | 6.53
COc1ccc(-c2cccc(N3CCCC3)n2)cc1NC(=O)Nc1ccc(Cl)cc1 [Compound 6] | < | 5.00
O=C(Nc1ccc(Cl)cc1)Nc1ccc(-c2ccc(Cl)c(Cl)c2)s1 [Compound 24] | = | 5.76
O=C(Nc1ccc(Cl)cc1)Nc1ccc(-c2ccncc2)s1 [Compound 35] | = | 6.53
